# system: Kras and SOS1 (biotin-tagged human Kras loaded with GDP, His-tagged human SOS1) (Homo sapiens, UniProt P01116, G12D)
# Construct: made in house; host or cells: E. coli (stated for Kras only)
# Sequence (P01116 1-188 isoform P01116-2 G12D): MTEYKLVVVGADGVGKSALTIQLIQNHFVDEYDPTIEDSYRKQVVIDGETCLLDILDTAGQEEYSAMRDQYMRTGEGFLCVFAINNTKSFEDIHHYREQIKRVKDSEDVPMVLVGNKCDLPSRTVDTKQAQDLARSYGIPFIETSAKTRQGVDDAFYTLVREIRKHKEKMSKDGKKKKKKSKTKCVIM
# protocol.summary: Protein-protein interaction inhibition between Kras and SOS1 (KrasGl2D-SOS PPI) using AlphaScreen
# Type: binding
# condition.info: AlphaScreen; biotin-tagged human Kras loaded with GDP, His-tagged human SOS1; read-out: KRAS G12D-SOS PPI IC50
# Procedure: Protein-Protein Interaction Inhibition Between Kras and SOS1 (KrasGl2D-SOS PPI) Using AlphaScreen Protein-protein interaction inhibition (PPI) between Kras and SOS1 was measured by energy transfer from nickel-conjugated donor beads to streptavidin-conjugated acceptor beads using biotin-tagged human Kras expressed in E. coli and loaded with GDP after purification and His-tagged human SOS1 enzyme. […]
Starred links: 1 amine or outer side, 2 acyl side, 3 side chain; linkers in the order of their positions; H or OH if unused. Positions of bridges follow the written chain, without caps; N, C: chain ends. Non-standard residues stand in square brackets, D forms with d. Residues, ends and D or L forms follow the SMILES beside them. *: point of attachment. hPhe(3-Cl-4-CF3) = N[C@@H](CCc1ccc(C(F)(F)F)c(Cl)c1)C(=O)O; NEtPhe(4-CF3) = CCN[C@@H](Cc1ccc(C(F)(F)F)cc1)C(=O)O; NMePhe(4-CF3) = CN[C@@H](Cc1ccc(C(F)(F)F)cc1)C(=O)O; NMePhe(4-Cl) = CN[C@@H](Cc1ccc(Cl)cc1)C(=O)O; NMePhe(4-Me) = CN[C@@H](Cc1ccc(C)cc1)C(=O)O; NMedβ3hAla = C[C@H](CC(=O)[*:2])N(C)[*:1]; Phe(3-Cl) = N[C@@H](Cc1cccc(Cl)c1)C(=O)O; NMeGly(cPent) = CN[C@H](C(=O)O)C1CCCC1; Pro(4,4-F2) = O=C(O)[C@@H]1CC(F)(F)CN1; NMeCha = CN[C@@H](CC1CCCCC1)C(=O)O; NMeChg = CN[C@H](C(=O)O)C1CCCCC1; NMeF = CN[C@@H](Cc1ccccc1)C(=O)O; NMeI = CC[C@H](C)[C@H](NC)C(=O)O; Gly(cPr) = N[C@H](C(=O)O)C1CC1; NMeD = CN[C@@H](CC(=O)O)C(=O)O; NMeL = CN[C@@H](CC(C)C)C(=O)O; NMeV = CN[C@H](C(=O)O)C(C)C; d(β3hA) = C[C@@H](N)CC(=O)O; NMeAbu = CC[C@H](NC)C(=O)O; NMeA = CN[C@@H](C)C(=O)O; Pyrrolidide = C1CCN(*)C1; dNMeA = CN[C@H](C)C(=O)O; Ac5c = NC1(C(=O)O)CCCC1; Aze = O=C(O)[C@@H]1CCN1; Ac4c = NC1(C(=O)O)CCC1; NEtG = CCNCC(=O)O; Sar = CNCC(=O)O
Please respond with reported log10 IC50 for every item in the list.
Use the decimal logarithm of IC50 (nM).

Q: Reported log10 IC50, molecule CC[C@H](C)[C@@H]1NC(=O)[C@H](CC(C)C)N(C)C(=O)C[C@@H](C)N(C)C(=O)[C@H]([C@@H](C)CC)N(C)C(=O)C2(CCC2)NC(=O)[C@@H]2CC(F)(F)CN2C(=O)[C@H](CCc2ccc(C(F)(F)F)c(Cl)c2)NC(=O)CN(C)C(=O)[C@H](Cc2ccc(C(F)(F)F)cc2)N(CC)C(=O)[C@@H]2CCN2C(=O)[C@H](C)N(C)C1=O [Compound 833] (cyclo([Ac4c][NMeI][NMedβ3hAla][NMeL]I[NMeA][Aze][NEtPhe(4-CF3)][Sar][hPhe(3-Cl-4-CF3)][Pro(4,4-F2)])) : ____
Ans: 0.96

Q: Reported log10 IC50, molecule CC[C@H](C)[C@@H]1NC(=O)[C@H](CC)N(C)C(=O)C[C@@H](C(=O)N2CCCC2)N(C)C(=O)[C@H](C2CCCCC2)N(C)C(=O)C2(CCCC2)NC(=O)[C@@H]2CCCN2C(=O)[C@H](CCc2ccc(C(F)(F)F)c(Cl)c2)NC(=O)CN(C)C(=O)[C@H](Cc2ccc(C(F)(F)F)cc2)N(C)C(=O)CN(C)C(=O)CN(C)C1=O [Compound 1890] ([NMeAbu]I[Sar][Sar][NMePhe(4-CF3)][Sar][hPhe(3-Cl-4-CF3)]P[Ac5c][NMeChg][NMeD]-Pyrrolidide; lactam N-11) : ____
Ans: -0.26

Q: Reported log10 IC50, molecule CC[C@H](C)[C@@H]1NC(=O)[C@H](C)N(C)C(=O)C[C@@H](C(=O)N2CCCC2)N(C)C(=O)[C@H](C(C)C)N(C)C(=O)C2(CCCC2)NC(=O)[C@@H]2CCCN2C(=O)[C@H](CCc2ccc(C(F)(F)F)c(Cl)c2)NC(=O)[C@@H](C)N(C)C(=O)[C@H](CC2CCCCC2)N(C)C(=O)[C@@H]2CCCN2C(=O)CN(C)C1=O [Compound 1715] ([NMeA]I[Sar]P[NMeCha][dNMeA][hPhe(3-Cl-4-CF3)]P[Ac5c][NMeV][NMeD]-Pyrrolidide; lactam N-11) : ____
Ans: 0.38

Q: Reported log10 IC50, molecule CC(C)C[C@H]1C(=O)N[C@@H](C2CC2)C(=O)N(C)CC(=O)N(C)CC(=O)N(C)[C@@H](CC2CCCCC2)C(=O)N(C)CC(=O)N[C@@H](CCc2ccc(C(F)(F)F)c(Cl)c2)C(=O)N2CCC[C@H]2C(=O)NC2(CCCC2)C(=O)N(C)[C@@H](C(C)C)C(=O)N[C@H](C)CC(=O)N1C [Compound 101] (cyclo([Ac5c][NMeV][d(β3hA)][NMeL][Gly(cPr)][Sar][Sar][NMeCha][Sar][hPhe(3-Cl-4-CF3)]P)) : ____
Ans: 2.20

Q: Reported log10 IC50, molecule CC[C@H](C)[C@@H]1NC(=O)[C@H](CC(C)C)N(C)C(=O)C[C@@H](C(=O)N2CCCC2)N(C)C(=O)[C@H](C2CCCCC2)N(C)C(=O)C2(CCCC2)NC(=O)[C@@H]2CCCN2C(=O)[C@H](CCc2ccc(C(F)(F)F)c(Cl)c2)NC(=O)CN(C)C(=O)[C@H](CC2CCCCC2)N(C)C(=O)CN(C)C(=O)CN(C)C1=O [Compound 1757] ([NMeL]I[Sar][Sar][NMeCha][Sar][hPhe(3-Cl-4-CF3)]P[Ac5c][NMeChg][NMeD]-Pyrrolidide; lactam N-11) : ____
Ans: -0.37

Q: Reported log10 IC50, molecule CC[C@H](C)[C@@H]1NC(=O)[C@H](C)N(C)C(=O)C[C@@H](C)NC(=O)[C@H](C2CCCC2)N(C)C(=O)C2(CCCC2)NC(=O)[C@@H]2CCCN2C(=O)[C@H](CCc2ccc(C(F)(F)F)c(Cl)c2)NC(=O)[C@@H](C)N(C)C(=O)[C@H](CC2CCCCC2)N(C)C(=O)[C@@H]2CCN2C(=O)[C@H](C)N(C)C1=O [Compound 1510] (cyclo([Ac5c][NMeGly(cPent)][d(β3hA)][NMeA]I[NMeA][Aze][NMeCha][dNMeA][hPhe(3-Cl-4-CF3)]P)) : ____
Ans: 2.04

Q: Reported log10 IC50, molecule CC[C@H](C)[C@@H]1NC(=O)[C@H](CC)N(C)C(=O)C[C@@H](C(=O)N2CCCC2)N(C)C(=O)[C@H](C2CCCCC2)N(C)C(=O)C2(CCCC2)NC(=O)[C@@H]2CCCN2C(=O)[C@H](CCc2ccc(C(F)(F)F)c(Cl)c2)NC(=O)CN(C)C(=O)[C@H](Cc2ccc(C)cc2)N(C)C(=O)CN(C)C(=O)CN(C)C1=O [Compound 1905] ([NMeAbu]I[Sar][Sar][NMePhe(4-Me)][Sar][hPhe(3-Cl-4-CF3)]P[Ac5c][NMeChg][NMeD]-Pyrrolidide; lactam N-11) : ____
Ans: -0.48

Q: Reported log10 IC50, molecule CC[C@H](C)[C@@H]1NC(=O)[C@H](C)N(C)C(=O)C[C@@H](C(=O)N2CCCC2)NC(=O)[C@H](C(C)C)N(C)C(=O)[C@H](Cc2ccccc2)N(C)C(=O)[C@H](Cc2ccccc2)NC(=O)[C@H](Cc2cccc(Cl)c2)NC(=O)CN(C)C(=O)[C@H](Cc2ccc(Cl)cc2)N(C)C(=O)CN(C)C(=O)CN(CC)C1=O [Compound 224] ([NMeA]I[NEtG][Sar][NMePhe(4-Cl)][Sar][Phe(3-Cl)]F[NMeF][NMeV]D-Pyrrolidide; lactam N-11) : ____
Ans: 2.36

Q: Reported log10 IC50, molecule CC[C@H](C)[C@@H]1NC(=O)[C@H](C)N(C)C(=O)C[C@@H](C)NC(=O)[C@H](C2CCCC2)N(C)C(=O)C2(CCCC2)NC(=O)[C@@H]2CCCN2C(=O)[C@H](CCc2ccc(C(F)(F)F)c(Cl)c2)NC(=O)CN(C)C(=O)[C@H](CC(C)C)N(C)C(=O)[C@@H]2CCCN2C(=O)CN(C)C1=O [Compound 429] (cyclo([Ac5c][NMeGly(cPent)][d(β3hA)][NMeA]I[Sar]P[NMeL][Sar][hPhe(3-Cl-4-CF3)]P)) : ____
Ans: 2.00
